- experimentalTarget: WT M2 (Influenza A virus)
- Sequence (P0DOF5 whole entry): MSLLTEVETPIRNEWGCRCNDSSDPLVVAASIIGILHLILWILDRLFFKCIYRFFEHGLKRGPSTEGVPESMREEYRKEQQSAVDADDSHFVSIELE
- assayInfo: cell-based
- Design: expressed in transfected cells; host or cells: Saccharomyces cerevisiae, multicopy plasmid, GAL1 promoter
- assayConditions: yeast expressing WT M2, growth measured after 40 h; read-out: EC50, yeast growth restoration
This section presents compounds with their documented EC50 values.

compound=Cn1cccc1CNC1CCCCCCC1 quantity=EC50 result="30 µM"
compound="O=[N+]([O-])c1ccccc1CNC1C2CC3CC(C2)CC1C3 (stereo not shown)" quantity=EC50 result="5 µM"
compound="OCC1CCCN1CC12CC3CC(CC(C3)C1)C2 (stereo not shown)" quantity=EC50 result="15 µM"

Let us examine a further case.
// EC50 lookup, key: O=[N+]([O-])c1ccc(CNC23CC4CC(CC(C4)C2)C3)cc1 5 µM
